# Target Entity: human recombinant COX2 (hCOX2)
# Sequence (P35354 1-604): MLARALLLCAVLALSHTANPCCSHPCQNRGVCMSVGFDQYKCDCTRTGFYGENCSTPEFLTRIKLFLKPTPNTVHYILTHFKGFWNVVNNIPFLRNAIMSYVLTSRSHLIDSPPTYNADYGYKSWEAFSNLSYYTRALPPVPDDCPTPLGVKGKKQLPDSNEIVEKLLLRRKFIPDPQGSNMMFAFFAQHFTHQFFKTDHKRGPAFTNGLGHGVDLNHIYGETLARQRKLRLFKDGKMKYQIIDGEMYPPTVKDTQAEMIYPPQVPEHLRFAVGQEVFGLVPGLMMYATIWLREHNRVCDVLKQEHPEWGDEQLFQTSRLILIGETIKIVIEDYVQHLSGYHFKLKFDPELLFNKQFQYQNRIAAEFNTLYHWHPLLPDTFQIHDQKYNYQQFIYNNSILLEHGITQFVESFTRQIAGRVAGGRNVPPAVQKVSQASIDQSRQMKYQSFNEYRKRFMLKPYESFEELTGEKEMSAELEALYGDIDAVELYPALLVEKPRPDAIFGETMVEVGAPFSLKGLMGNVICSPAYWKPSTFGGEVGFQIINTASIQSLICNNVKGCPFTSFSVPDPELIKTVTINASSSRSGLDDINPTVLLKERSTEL
# Protocol: LCMS-based COX2 enzymatic inhibition assay (PGE2 quantification)
# Type: biochemical
# Design: COX2 2 minutes pge2/pge2d4 area ratio Avg; other: 2 minutes; readout pge2/pge2d4 area ratio; average; COX2 2 minutes pge2/pge2d4 area ratio Avg; LLE; average LLE; COX2 2 minutes pge2 area (counts) Avg; readout pge2 area (counts); other: 2 min; "ovine COX2 (oCOX2), human recombinant COX2 (hCOX2)"
# Condition: 2 minutes; readout pge2 area (counts); average LLE
# From the text: We have adapted a previously reported cyclooxygenase enzymatic assay utilizing LCMS quantification of PGE2 as the product of COX-1 and COX2 catalyzed conversion of arachidonic acid to evaluate the binding properties of newly synthesized ligands [Cao, 2011]. […] Using these enzymatic assays, we have evaluated>200 newly synthesized ligands against COX2 and >20 ligands against COX-1. […]
Property: COX2 2 minutes pge2 area (counts) Avg. LLE

Would you please look over these solved cases?
{"columns": ["Cpd Smiles", "Experimental Value"],
 "data": [
  ["C[C@@H](Nc1cncc(-c2ccc(S(C)(=O)=O)cc2)n1)c1cccs1", 3.9817],
  ["CS(=O)(=O)c1ccc(-c2cncc(SCc3ccno3)n2)cc1", 4.813],
  ["Cc1occc1CNc1cccc(-c2ccc(S(C)(=O)=O)cc2)n1", 4.716],
  ["Cc1cccc(COc2cncc(-c3ccc(S(C)(=O)=O)cc3)n2)c1", 2.514]
]}

(P) CS(=O)(=O)c1ccc(-c2cncc(OCc3ccoc3)n2)cc1
(Q) CS(=O)(=O)c1ccc(-c2cc3ccoc3c(NCc3cccs3)n2)cc1
Input line: Of the pair P and Q , name the member with the lesser recorded COX2 2 minutes pge2 area (counts) Avg. LLE. Select an item and report its label.
Output line: Q
